system: RPMI-8226; experiment: NCI tumour cell line growth inhibition, 48 h
Calls of active or inactive are those of the source. Cut-off read from the data, not from the text of the source: active = GI50 up to about 1.1 µM and inactive = higher.
Select the matching outcome among true (1) = active, false (0) = inactive

[[record]]
molecule = "Cc1cc(C(=O)NCCN(C)C)c2nc3ccccc3cc2c1"
assigned_label = "false (0)"

[[record]]
molecule = "O=C(O)Cc1ccc(-n2nnc3c(=O)[nH][nH]c(=O)c32)cc1"
assigned_label = "false (0)"

[[record]]
molecule = "CN(C)C(=O)NCCN1CCCCCc2ccccc21"
assigned_label = "false (0)"


Problem: Called result for COc1cc(C2c3cc4c(cc3OC(N3CCNCC3)C2C)OCO4)cc(OC)c1OC (stereo not drawn)
Solution: true (1)

Problem: Another molecule: O=C1C=C2C(=NC34CCCCC3C(c3ccccc3)C3=C(c5ccccc5CC3)N24)c2ccccc21 (stereo not drawn)
Solution: false (0)

Problem: Try this molecule next: CC1=CC(C)C(C)N(CC2=NCCN2)c2ccccc21 (stereo not drawn)
Solution: false (0)

Problem: Can you handle COc1ccc(Br)c(N/N=C2\CCCNC2=O)c1 next?
Solution: false (0)

Problem: Now give it for C=CCn1c(=O)c2ccccc2[n+]2c(-c3cccc([N+](=O)[O-])c3)csc12 too.
Solution: false (0)

Problem: Next up: COc1ccc(/C(=N\NC(=S)NN)C(c2ccc(OC)cc2)C2C(=O)Oc3ccccc32)cc1 (stereo not drawn)
Solution: false (0)
